Measured values drawn from patent US20260166139A1 for this set.

- study-target: T1, CTLA4 antigen on the surface of 293F-CTLA4 host cells (UniProt P16410 36-223, limits assumed)
- T1 construct: whole, on cells
- T1 sequence (looked up): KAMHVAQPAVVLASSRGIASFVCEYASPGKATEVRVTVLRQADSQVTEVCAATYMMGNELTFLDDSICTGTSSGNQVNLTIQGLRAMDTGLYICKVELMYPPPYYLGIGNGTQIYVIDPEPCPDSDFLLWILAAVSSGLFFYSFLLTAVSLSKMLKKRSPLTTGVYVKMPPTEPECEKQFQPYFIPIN
- assay: flow cytometry, 293F-CTLA4 cells; antibody 0.01 nM
Quick rule: fluorescence intensity of at least 10 means t, below that means f.

{"binder": "humanized antibody 8D2H3L3 (antibody, V domains shown) VH: EVQLVESGGGLVQPGGSLRLSCAASGFTFSDNWMNWVRQAPGKGLEWVAQIRNKPYNYETEYAASVKGRFTISRDDSKNSAYLQMNSLKTEDTAVYYCTAQFAYWGQGTLVTVSS VL: DIQMTQSPSSLSASVGDRVTITCRASENIYGGLNWYQQKPGKAPKLLIYGATSLASGVPSRFSGSGSGTDYTLTISSLQPEDFATYYCQNVLRSPFTFGSGTKLEIK", "label-value": "t"}
{"binder": "8D2 recombinant antibody, 8D2(Re) (antibody, V domains shown) VH: EVKLDETGGGLVQPGRPMKLSCVASGFTFSDNWMNWVRQSPEKGLEWLAQIRNKPYNYETYYSDSVKGRFTISRDDSKSSVYLQMNNLRGEDMGIYYCTAQFAYWGQGTLVTVSA VL: DIQMTQSPASLSASVGETVTITCGTSENIYGGLNWYQRKQGKSPQLLIFGATNLADGMSSRFSGSGSGRQYSLKISSLHPDDVATYYCQNVLRSPFTFGSGTKLEI", "label-value": "t"}
{"binder": "monoclonal antibody 8D2 (antibody, V domains shown, Murine antibody purified from hybridoma supernatant; also called mAb 8D2; antibody secreted by the CTLA4-8D2 hybridoma cell line LT001) VH: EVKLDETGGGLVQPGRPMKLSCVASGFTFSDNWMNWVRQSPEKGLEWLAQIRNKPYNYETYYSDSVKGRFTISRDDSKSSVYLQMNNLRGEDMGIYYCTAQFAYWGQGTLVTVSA VL: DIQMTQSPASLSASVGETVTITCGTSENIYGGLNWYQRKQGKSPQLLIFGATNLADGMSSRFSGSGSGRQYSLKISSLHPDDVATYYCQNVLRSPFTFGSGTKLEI", "label-value": "f"}
{"binder": "humanized antibody 8D2H1L1 (antibody, V domains shown) VH: EVQLVESGGGLVQPGGSMRLSCAASGFTFSDNWMNWVRQAPGKGLEWLAQIRNKPYNYETYYSDSVKGRFTISRDDSKNSVYLQMNSLKTEDTGVYYCTAQFAYWGQGTLVTVSS VL: DIQMTQSPSSLSASVGDRVTITCRTSENIYGGLNWYQRKQGKSPKLLIYGATNLASGMSSRFSGSGSGTDYTLKISSLHPDDVATYYCQNVLRSPFTFGSGTKLEIK", "label-value": "t"}
{"binder": "humanized antibody 8D2H2L2 (antibody, V domains shown, also called 8D2H2L2(20150327); 8D2H2L2(20140422)) VH: EVQLVESGGGLVQPGGSMRLSCAASGFTFSDNWMNWVRQAPGKGLEWLAQIRNKPYNYETYYSASVKGRFTISRDDSKNSVYLQMNSLKTEDTGVYYCTAQFAYWGQGTLVTVSS VL: DIQMTQSPSSLSASVGDRVTITCRTSENIYGGLNWYQRKPGKSPKLLIYGATNLASGVSSRFSGSGSGTDYTLTISSLQPEDVATYYCQNVLRSPFTFGSGTKLEIK", "label-value": "t"}
